# TARGET UNDER TEST: T1, SARS-CoV-2 S1 (aa16-685) (Wuhan) (SARS-CoV-2 Wuhan, UniProt P0DTC2 16-685)
# T1 construct: NRC; FLAG, 6xHis tags
# PROTOCOL DETAILS: SPR, antigen on chip

[
  {
    "BINDER": "NRCoV2-11 VHH (VHH) VHH: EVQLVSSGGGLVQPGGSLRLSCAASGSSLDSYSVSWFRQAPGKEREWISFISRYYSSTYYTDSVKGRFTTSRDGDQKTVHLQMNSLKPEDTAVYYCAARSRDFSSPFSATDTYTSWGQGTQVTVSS",
    "kon (M⁻¹ s⁻¹)": "1.08e+06"
  },
  {
    "BINDER": "NRCoV2-04 VHH (VHH) VHH: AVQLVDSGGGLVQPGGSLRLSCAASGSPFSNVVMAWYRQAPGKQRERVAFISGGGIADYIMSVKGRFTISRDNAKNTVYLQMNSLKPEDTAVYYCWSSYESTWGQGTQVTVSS",
    "kon (M⁻¹ s⁻¹)": "1.61e+06"
  }
]

These entries and their values trace back to patent US20240270826A1.
